Sourced from patent US20120225909A1

For each record, write down the corresponding EC50.
# target of assay: human β3-adrenergic receptor (Homo sapiens)
# Construct: A full-length human β3 gene is obtained from a human genomic library (made by Clontech) using this as the probe; expressed in transfected cells; host or cells: CHO (Chinese hamster ovary) cells, pcDNA3
# Sequence (P13945 whole entry): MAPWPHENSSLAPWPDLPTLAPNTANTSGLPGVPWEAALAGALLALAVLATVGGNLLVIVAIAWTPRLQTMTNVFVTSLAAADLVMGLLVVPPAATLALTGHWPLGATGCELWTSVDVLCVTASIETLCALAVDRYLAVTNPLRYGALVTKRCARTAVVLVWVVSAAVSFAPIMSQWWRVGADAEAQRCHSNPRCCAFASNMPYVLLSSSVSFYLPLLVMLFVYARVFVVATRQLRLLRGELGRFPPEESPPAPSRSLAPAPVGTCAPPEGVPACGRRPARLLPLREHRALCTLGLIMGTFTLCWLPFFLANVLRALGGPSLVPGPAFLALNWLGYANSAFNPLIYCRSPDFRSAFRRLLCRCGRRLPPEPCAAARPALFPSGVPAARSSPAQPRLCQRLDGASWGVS
# assay method text: Test Case 1-B: human β3-adrenergic receptor agonist activity (cAMP-Screen, 96-well)
# Type: cell-based
# condition notes: Test Case 1-B; CHO cells, cAMP
A number alone suffices; assume nM.

Incoming: Which EC50 reading was recorded for the molecule "Cc1n[nH]c2cc(OCCNC[C@H](O)c3cccc(NS(=O)(=O)c4cn[nH]c4)c3)ccc12" ?
Outgoing: 16

Incoming: Which EC50 reading was recorded for the molecule "Cc1n[nH]c2cc(OCCNC[C@H](O)c3cccc(NS(=O)(=O)c4ccccc4O)c3)ccc12" ?
Outgoing: 43

Incoming: Which EC50 reading was recorded for the molecule "Cc1n[nH]c2cc(OCCNC[C@H](O)c3cccc(NS(=O)(=O)c4ccc(N)cc4)c3)ccc12" ?
Outgoing: 125

Incoming: Which EC50 reading was recorded for the molecule "Cc1n[nH]c2cc(OCCNC[C@H](O)c3cccc(NS(=O)(=O)c4ccccc4F)c3)ccc12" ?
Outgoing: 28

Incoming: Which EC50 reading was recorded for the molecule "O=S(=O)(Nc1cccc([C@@H](O)CNCCOc2ccc3c(Cl)n[nH]c3c2)c1)C1CCC1" ?
Outgoing: 17

Incoming: Which EC50 reading was recorded for the molecule "Cc1n[nH]c2cc(OCCNC[C@H](O)c3cccc(NS(=O)(=O)c4cccc(OC(F)F)c4)c3)ccc12" ?
Outgoing: 291

Incoming: Which EC50 reading was recorded for the molecule "Cc1n[nH]c2cc(OCCNC[C@H](O)c3cccc(NS(=O)(=O)c4ccccn4)c3)ccc12" ?
Outgoing: 208

Incoming: Which EC50 reading was recorded for the molecule COc1n[nH]c2cc(OCCNC[C@H](O)c3cccc(NS(=O)(=O)c4ccsc4)c3)ccc12 [ex46] ?
Outgoing: 2.4

Incoming: Which EC50 reading was recorded for the molecule "CC(C)c1n[nH]c2cc(OCCNC[C@H](O)c3cccc(NS(=O)(=O)c4cccc(N)c4)c3)ccc12" ?
Outgoing: 0.2

Incoming: Which EC50 reading was recorded for the molecule "Cn1cc(S(=O)(=O)Nc2cccc([C@@H](O)CNCCOc3ccc4c(C5CC5)n[nH]c4c3)c2)cn1" ?
Outgoing: 5.7

Incoming: Which EC50 reading was recorded for the molecule "Cc1n[nH]c2cc(OCCNC[C@H](O)c3cccc(NS(=O)(=O)c4ccccc4N)c3)ccc12" ?
Outgoing: 4.1

Incoming: Which EC50 reading was recorded for the molecule COc1n[nH]c2cc(OCCNC[C@H](O)c3cccc(NS(=O)(=O)c4cccnc4)c3)ccc12 [ex12] ?
Outgoing: 31
